target: Beta-secretase 1 (Homo sapiens); test: Inhibition of BACE1
pIC50: −log10 of the molar value.
Mark NOT MET for pIC50 values under 7, and MET for everything at or above.

Form field: pIC50 at least 7? Entry: "CC(C)Nc1cc(C(=O)N[C@@H](Cc2ccccc2)[C@H](O)CN[C@@H](C)C(=O)NC2CCCCC2)cc(N2CCCC2=O)c1"
MET

Record "C[C@@H](C(=O)NC1CCCCC1)N(C)C[C@@H](O)[C@H](Cc1ccccc1)NC(=O)c1cccc(S(C)(=O)=O)c1" ; criterion: pIC50 no lower than 7. Met?
NOT MET

Reported pIC50 reaches at least 7 for "CC(C)CNc1cc(C(=O)N[C@@H](Cc2ccccc2)[C@H](O)CN[C@@H](C)C(=O)NC2CCCCC2)cc(N2CCCC2=O)c1" ?
NOT MET

Please check the record "CC(=O)Nc1ccc(C(=O)N[C@@H](Cc2ccccc2)[C@H](O)CN[C@@H](C)C(=O)NC2CCCCC2)cc1" and state if its pIC50 is at or above 7.
NOT MET

Please indicate if the recorded pIC50 for "CCOc1cc(C(=O)N[C@@H](Cc2ccccc2)[C@H](O)CN[C@@H](C)C(=O)NC2CCCCC2)cc(N2CCCC2)c1" meets or exceeds 7.
NOT MET

Threshold query (pIC50 >= 7) on "CC(C)C[C@H](NC(=O)c1cccc(S(C)(=O)=O)c1)[C@H](O)CN[C@@H](C)C(=O)NC1CCCCC1"
NOT MET

Decide: is the reported value of pIC50 for "COc1cc(C(=O)N[C@@H](Cc2ccccc2)[C@H](O)CN[C@@H](C)C(=O)NC2CCCCC2)cc(N2CCCC2=O)c1" equal to or greater than 7?
NOT MET

Is the recorded value of pIC50 equal to or greater than 7 for this molecule? "CCOc1cc(C(=O)N[C@@H](Cc2ccccc2)[C@H](O)CN[C@@H](C)C(=O)NC2CCCCC2)cc(N2CCCC2=O)c1"
MET

Please indicate if the recorded pIC50 for "C[C@H](NC[C@@H](O)[C@H](Cc1ccccc1)NC(=O)c1cc(N2CCCC2)cc(N2CCCC2=O)c1)C(=O)NC1CCCCC1" meets or exceeds 7.
NOT MET

Check this molecule for pIC50 at or above 7: "CCCCCOc1cc(C(=O)N[C@@H](Cc2ccccc2)[C@H](O)CN[C@@H](C)C(=O)NC2CCCCC2)cc(N2CCCC2=O)c1"
MET

Hello, I need to know if "C[C@H](NC[C@H](O)[C@H](Cc1ccccc1)NC(=O)c1cccc(S(C)(=O)=O)c1)C(=O)NC1CCCCC1" has measured pIC50 not below 7. Thanks!
NOT MET

In plain terms: is recorded pIC50 at least 7 for "C[C@H](NC[C@@H](O)[C@H](Cc1ccccc1)NC(=O)c1cccc(N2CCCS2(=O)=O)c1)C(=O)NC1CCCCC1" ?
NOT MET

----------
molecular target: Cathepsin D (Homo sapiens)
Sequence (P07339 65-162 limits assumed): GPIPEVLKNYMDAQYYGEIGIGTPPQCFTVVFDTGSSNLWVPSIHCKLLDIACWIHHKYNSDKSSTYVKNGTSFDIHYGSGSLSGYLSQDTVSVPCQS
Sequence (P07339 169-412 limits assumed): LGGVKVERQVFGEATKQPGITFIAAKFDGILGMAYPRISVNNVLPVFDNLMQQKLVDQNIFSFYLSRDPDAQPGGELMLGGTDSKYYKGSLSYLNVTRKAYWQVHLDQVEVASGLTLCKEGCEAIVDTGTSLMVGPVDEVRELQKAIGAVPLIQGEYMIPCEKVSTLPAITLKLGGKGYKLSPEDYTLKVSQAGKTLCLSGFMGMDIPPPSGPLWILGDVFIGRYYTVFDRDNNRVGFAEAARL
So I've got a bunch of compounds here, and I need their pIC50 values.
Give bare numbers, as −log10 of the molar value.

A selection of reference data follows.
INSERT INTO measurements (compound_structure_string, target_or_system, measured_endpoint, recorded_number) VALUES
  ('CC(C)CNc1cc(C(=O)N[C@@H](Cc2ccccc2)[C@H](O)CN[C@@H](C)C(=O)NC2CCCCC2)cc(N2CCCC2=O)c1', 'Cathepsin D (Homo sapiens)', 'pIC50', 5.51),
  ('CCCOc1cc(C(=O)N[C@@H](Cc2ccccc2)[C@H](O)CN[C@@H](C)C(=O)NC2CCCCC2)cc(N2CCCC2=O)c1', 'Cathepsin D (Homo sapiens)', 'pIC50', 4.33),
  ('C[C@H](NC[C@@H](O)[C@H](Cc1ccccc1)NC(=O)c1cc(N2CCCC2)cc(N2CCCC2=O)c1)C(=O)NC1CCCCC1', 'Cathepsin D (Homo sapiens)', 'pIC50', 5.03);

Dear colleague, could you send me pIC50 for each of the items below? Thanks.
1. CCCCCS(=O)(=O)c1cccc(C(=O)N[C@@H](Cc2ccccc2)[C@H](O)CN[C@@H](C)C(=O)NC2CCCCC2)c1
2. COc1cc(C(=O)N[C@@H](Cc2ccccc2)[C@H](O)CN[C@@H](C)C(=O)NC2CCCCC2)cc(N2CCCC2=O)c1

1. 6.22
2. 4.52

----------
target: Beta-secretase 1 (Homo sapiens, UniProt P56817); experiment: Inhibition of BACE1 expressed in SHSY5Y cells assessed as reduction of amyloid beta 40 production; format: cell-based, SH-SY5Y
Sequence (P56817 whole entry): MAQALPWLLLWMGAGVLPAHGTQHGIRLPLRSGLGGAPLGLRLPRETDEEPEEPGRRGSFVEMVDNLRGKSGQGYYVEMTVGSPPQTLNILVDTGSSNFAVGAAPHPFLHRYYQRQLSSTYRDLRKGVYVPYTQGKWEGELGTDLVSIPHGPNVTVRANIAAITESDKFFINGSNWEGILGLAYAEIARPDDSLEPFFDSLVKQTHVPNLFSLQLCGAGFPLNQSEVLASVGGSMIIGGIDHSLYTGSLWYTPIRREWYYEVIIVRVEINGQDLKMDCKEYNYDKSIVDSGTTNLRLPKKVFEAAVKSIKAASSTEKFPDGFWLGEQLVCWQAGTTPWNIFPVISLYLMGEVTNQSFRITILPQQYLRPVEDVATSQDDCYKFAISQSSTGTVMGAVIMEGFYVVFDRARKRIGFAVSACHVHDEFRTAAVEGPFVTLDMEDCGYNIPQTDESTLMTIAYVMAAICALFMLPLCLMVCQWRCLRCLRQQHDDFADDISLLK
pIC50: −log10 of the molar value.
Could you label it yes if measured pIC50 is 6 or higher, and no otherwise?

INSERT INTO results (compound_structure_string, group) VALUES
  ('CCCOc1cc(C(=O)N[C@@H](Cc2ccccc2)[C@H](O)CN[C@@H](C)C(=O)NC2CCCCC2)cc(N2CCCC2=O)c1', 'no');

Is reported pIC50 greater than or equal to 6 here: "CC(C)Nc1cc(C(=O)N[C@@H](Cc2ccccc2)[C@H](O)CN[C@@H](C)C(=O)NC2CCCCC2)cc(N2CCCC2=O)c1"
yes

----------
target: Beta-secretase 1 (Homo sapiens, UniProt P56817); assay: Inhibition of BACE1 expressed in SHSY5Y cells assessed as reduction of amyloid beta 40 production; format: cell-based, SH-SY5Y
Measured endpoint: pIC50
Answers are plain numbers, as −log10 of the molar value.

// below: answered compounds
INSERT INTO measurements (compound_structure_string, measured_endpoint, recorded_number) VALUES
  ('CCOc1cc(C(=O)N[C@@H](Cc2ccccc2)[C@H](O)CN[C@@H](C)C(=O)NC2CCCCC2)cc(N2CCCC2=O)c1', 'pIC50', 6.01),
  ('CCCc1cc(C(=O)N[C@@H](Cc2ccccc2)[C@H](O)CN[C@@H](C)C(=O)NC2CCCCC2)cc(N2CCCC2=O)c1', 'pIC50', 6.00);

Now consider a different compound.
Look up pIC50 for this compound: "CC(C)Oc1cc(C(=O)N[C@@H](Cc2ccccc2)[C@H](O)CN[C@@H](C)C(=O)NC2CCCCC2)cc(N2CCCC2=O)c1"
5.95
